The origin of these recorded values is PubChem BioAssay (NCI).

# Assay Method Text: NCI Yeast Anticancer Drug Screen. Data for the bub3 strain (AID 167)
# Settings: S. cerevisiae bub3 mutant strain, at 50.0 µM, hits give high values
About 79,000 compounds went through this panel and 15% of them were active in at least one assay; those are over-represented in the sample as a whole.

| Molecule | growth inhibition, % |
| --- | --- |
| O=C(O)CC(NC(=O)CP(=O)(O)O)C(=O)O (configuration not stated) | -8.5 |
| Cn1cc(S(C)=O)c(=O)c2ccccc21 (configuration not stated) | 8.3 |
| C1C2CC3(CO3)C1C1OC21 (configuration not stated) | -22.2 |
| Cc1nc(Nc2ccc(Cl)c(Cl)c2)sc1C(/C=C/c1ccc2c(c1)OCO2)=N/Nc1ccc([N+](=O)[O-])cc1[N+](=O)[O-] | -9.55 |
| COC(=O)c1nc(=S)[nH]c(C(=O)OC)c1C(=O)c1ccccc1O | 29.1 |
| CCOC(=O)CCCc1ccccc1 | 4.05 |
| C=C(C#N)C1OCC2OC(C)(C)OC21 (configuration not stated) | -4.8 |
| COC(=O)c1cc(NC(=O)Nc2ccc(F)c([N+](=O)[O-])c2)cc(C(=O)OC)c1 | -1.3 |
| NC1CC1 | 11.6 |
| CC1=CC2C3C(=O)OC(=O)C3C1C(Cc1ccccc1)N2C (configuration not stated) | -6.55 |
| COC1=CC(=O)C(c2cc(O)c(OC)cc2O)=CC1=O | 4.5 |
| O=C(/C=C/c1cccc([N+](=O)[O-])c1)Nc1cccnc1 | 29.9 |

====

The entries below are paired with their reported growth inhibition.
# Assay Method Text: NCI Yeast Anticancer Drug Screen. Data for the sgs1 mgt1 strain (AID 161);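 note: 0% = growth of cultures given vehicle only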
# Settings: S. cerevisiae sgs1 mgt1 strain, at 50.0 µM, hits give high values
# Method: Growth inhibition of yeast strains with defined genetic alterations is measured as a screen for potential anti-cancer activity. Selected strains with alterations in DNA damage repair or cell cycle control were exposed to compounds and growth inhibition was measured relative to vehicle treated controls. The strain used in this assay is sgs1 mgt1
This is part of a sample that, as a whole, favours compounds with a hit. Of some 79,000 tested, about 15% had one in any assay.
Result Type: growth inhibition (%)

| Compound | Experimental Result |
| --- | --- |
| O=C(O)c1cncc(C(=O)O)c1 | -14.7 |
| COc1cc(C(=O)C(C)Br)cc(OC)c1OC (configuration not stated) | 64.9 |
| Cc1cc(Cl)ccc1Nc1nc2c(s1)C(=O)c1ccccc1C2=O | 85.6 |
| c1ccc(C2=NC3CCCCC3S2)cc1 (configuration not stated) | 3.7 |
| CN(C)C1CS(=O)(=O)C1c1ccccc1 (configuration not stated) | 7.1 |
| COC(=O)c1c(C)cc(OC(=O)c2c(C)cc(OC)c(C)c2OC)c(C)c1O | -2.15 |
| NS(=O)(=O)c1cc(C(=O)O)c(O)c2ccccc12 | 1.15 |
| Cc1ccc(S(=O)(=O)N2CCCC(O)c3ccccc32)cc1 (configuration not stated) | -29.4 |
| CC(C#N)OCCO (configuration not stated) | 7.85 |
| C/C=C1\CN2CCc3c([nH]c4ccccc34)C2CC1CC(=O)N(C)C (configuration not stated) | -20.6 |
| Cc1ccccc1/C=C/C(=O)O | -0.45 |
| COC(=O)NN(C(=O)OC)C12CCCCC1N(C(=O)OC)N(C(=O)OC)c1c2ccc2cc(OC)ccc12 (configuration not stated) | 7.65 |

====

The entries below are paired with their reported growth inhibition.
# Assay Method Text: NCI Yeast Anticancer Drug Screen. Data for the bub3 strain (AID 167)
# Settings: S. cerevisiae bub3 mutant strain, at 50.0 µM, hits give high values
This is part of a sample that, as a whole, favours compounds with a hit. Of some 79,000 tested, about 15% had one in any assay.
Result Type: growth inhibition (%)

| Molecule | Experimental Result |
| --- | --- |
| NC(=O)CN(CC(N)=O)CC(N)=O | -3.65 |
| CC12CCC(C1)C(C)(C)/C2=N\O (configuration not stated) | 0.05 |
| O/N=C(\c1ccccc1)c1ccc2ncccc2c1 | 7.45 |
| CC(=O)OC(COC(c1ccccc1)(c1ccccc1)c1ccccc1)C(OC(C)=O)C(COC(c1ccccc1)(c1ccccc1)c1ccccc1)OC(C)=O (configuration not stated) | -6.6 |
| COC(=O)C(O)C(O)C(O)C(O)C(O)CO (configuration not stated) | -8.6 |
| Cc1ccc2cccc(OCC(=O)O)c2n1 | -8.45 |
| O=C1C2C(C(=O)N1c1ccccc1)C1(Br)c3ccccc3C2(Br)C2C(=O)N(c3ccccc3)C(=O)C21 (configuration not stated) | -4.55 |
| CCC1(CC)C(=O)C(CC)(CC)C1=O | 39.1 |
| CC1=CC(=O)C(=O)c2ccccc21 | -4.4 |
| COc1ccc(C2N(C(C#N)c3ccccc3OC)CCCN2C(C#N)c2ccccc2OC)c(OC)c1 (configuration not stated) | -2.55 |
| c1csc(CNc2cccc3ccccc23)c1 | 13.6 |
| CC(N(C)Cc1ccccc1)C(C)(O)c1ccccc1 (configuration not stated) | 51 |

====

# Assay Method Text: NCI Yeast Anticancer Drug Screen. Data for the mlh1 rad18 strain (AID 175)
# Settings: S. cerevisiae mlh1 rad18 strain growth inhibition; at 50.0 µM; hits give high values
Compounds without any hit were thinned out: in the full panel of roughly 79,000, 15% have a hit.
The entries below are paired with their reported growth inhibition.

| Compound | Endpoint Unit | growth inhibition |
| --- | --- | --- |
| Clc1ccc(CSCSCc2ccc(Cl)cc2)cc1 | % | 4.3 |
| CCOc1ccccc1N1C(=O)C(=O)C(c2nc3ccccc3o2)C(=O)C1=O | % | -3.2 |
| CCc1nc(N)nc(N)c1-c1ccc(OC)c(N)c1 | % | 43.4 |
| Cc1nnc(-c2cn(C3OC(CO)C(O)C3O)c3ncnc(N)c23)nc1C (stereo unspecified) | % | 8.9 |
| CCC(CC)COC(=O)c1ccccc1 | % | -0.75 |
| Cc1cc2c(nn1)CCc1c-2no[n+]1[O-] | % | -2.8 |

====

# Assay Method Text: NCI Yeast Anticancer Drug Screen. Data for the bub3 strain (AID 167)
# Settings: S. cerevisiae bub3 mutant strain, at 50.0 µM, hits give high values
About 79,000 compounds went through this panel and 15% of them were active in at least one assay; those are over-represented in the sample as a whole.
The entries below are paired with their reported growth inhibition.
Result Type: growth inhibition (%)

| Molecule | Endpoint Unit | Experimental Result |
| --- | --- | --- |
| CSc1n[n+](-c2ccccc2)cs1 | % | 21.7 |
| Cc1ccc2c(c1)CC1(C2=O)[C@H](c2ccccc2)C2C(=O)c3ccc(C)cc3C2[C@H]1c1ccccc1 (stereo partly specified) | % | 14.6 |
| O=C(NNC1=NCCCN1)c1ccco1 | % | 7.5 |
| Nc1n[nH]c(CO)n1 | % | -14.8 |
| CC1Cc2c(cc(N)nc2Br)NC1=O (stereo unspecified) | % | 3.35 |
| CCCCCCCCOC(=O)C1(O)CCCCC1 | % | 17.6 |
| Cn1cnc([N+](=O)[O-])c1Cl | % | 19.2 |
| CCC(C(=O)O)C1=CCCCC1 (stereo unspecified) | % | -14.2 |
| Cc1ccc(S(=O)(=O)Oc2cccc(C)c2)cc1 | % | 14.7 |
| COc1cccc(NC(=O)CSc2nnc(-c3ccc(NC(C)=O)cc3)o2)c1 | % | -25.4 |
| O=C(CNCc1ccccc1)NC(Cc1ccccc1)c1ccccc1 (stereo unspecified) | % | 13.4 |
| CCCCCCCCCCOC1C(C(C)OCCCN(C)C)OC2OC3(CCCCC3)OC21 (stereo unspecified) | % | -31.6 |
| Cc1nc(-c2cc([N+](=O)[O-])cc([N+](=O)[O-])c2)oc1-c1ccccc1 | % | -3.25 |
| COc1ccc(-c2cc(-c3ccccc3)[nH]c(=S)c2C#N)cc1 | % | 13.3 |
| CCCOS(=O)(=O)O | % | 6.65 |
| O=C(NN1C(=O)C(Cl)C1c1ccc([N+](=O)[O-])cc1)c1ccccc1O (stereo unspecified) | % | -26 |
| O=C1CCCCC1C(O)(C(F)(F)F)C(F)(F)Cl (stereo unspecified) | % | -30.2 |
| O=C(O)Cc1cc(CC(=O)O)cc(CC(=O)O)c1 | % | 1.6 |
| Cc1ccccc1C(=O)c1ccc2ccccc2c1 | % | 9.3 |
| CSC1=Nc2ccccc2N(C)c2c1c(-c1ccccc1)nn2C | % | 43 |
| CS(=O)(=O)N1C=CC2C(C=C1)C1(c3ccccc3)OC2(c2ccccc2)c2ccccc21 (stereo unspecified) | % | 2.95 |
| CC(=O)Oc1ccc(-c2ccccc2)cc1C(=O)O | % | 41.3 |
| COC(=O)CCC1CCCC(CCC(=O)OC)C1=O (stereo unspecified) | % | -1.1 |
| CCOC(=O)c1nc2c(Cl)c3ncccc3cc2[nH]c1=O | % | 16.1 |
| COc1ccccc1/C=C/C(=O)c1ccccc(=O)c1O | % | -1.05 |
| N=C(N)N1CCC(N2CCOCC2)CC1 | % | 4.75 |
